biological target: Interleukin-8 (IL8, CXCL8), C-terminal His-tagged (Homo sapiens, UniProt P10145 SEQ:1-72); assay: competition; competition TR-FRET; conditions: tags: C-terminal 6xHis (Sino Biological)
MEASURE: binding result

Would you please look over these solved cases?
UGAUGACGGUAGAUAACGGGUAGUGUGACCGCAUCU (ssRNA, 2'-F G, 2'-OMe A/C/U, 5' C6NH2, 3' idT) [Aptamer 109]	binds
UGAUGACGGUAGAUUACGGGCAGUGUGACCGCAUCU (ssRNA, 2'-F G, 2'-OMe A/C/U, 5' C6NH2, 3' idT) [Aptamer 96]	binds
UGAUGACGGUAGAUUACGGGAAGAGUGACCGCAUCU (ssRNA, 2'-F G, 2'-OMe A/C/U, 5' C6NH2, 3' idT) [Aptamer 103]	binds
UGAUGACGGUAGAUUAAGGGUAGUGUGACCGCAUCU (ssRNA, 2'-F G, 2'-OMe A/C/U, 5' C6NH2, 3' idT) [Aptamer 104]	binds

Q: For the binder UGAUGACGGUAGAUUACGGGUUGUGUGACCGCAUCU (ssRNA, 2'-F G, 2'-OMe A/C/U, 5' C6NH2, 3' idT) [Aptamer 105] , what binding result is on record?
A: binds

Q: Also check UGAUGACGGUAGAUAACGGGUAGAGUGACCGCAUCU (ssRNA, 2'-F G, 2'-OMe A/C/U, 5' C6NH2, 3' idT) [Aptamer 108]
A: binds

Q: Also check UCAUGACGGUAGAUUUCGGGUAGUGUGACCGCAUGU (ssRNA, 2'-F G, 2'-OMe A/C/U, 5' C6NH2, 3' idT) [Aptamer 101]
A: binds

Q: Also check UGAUGACGGUAGAUUACGGGAAGUGUGACCGCAUCU (ssRNA, 2'-F G, 2'-OMe A/C/U, 5' C6NH2, 3' idT) [Aptamer 98]
A: binds

Q: Also check UCAUGACGGUAGAUUACGGGUAGAGUGACCGCAUGU (ssRNA, 2'-F G, 2'-OMe A/C/U, 5' C6NH2, 3' idT) [Aptamer 102]
A: binds

Q: Also check UGAUGACGGUAGAUUAUGGGUAGUGUGACCGCAUCU (ssRNA, 2'-F G, 2'-OMe A/C/U, 5' C6NH2, 3' idT) [Aptamer 111]
A: binds

Q: Also check UGAUGACGAUAGAUUUCGGGUAGUGUGAUCGCAUCU (ssRNA, 2'-F G, 2'-OMe A/C/U, 5' C6NH2, 3' idT) [Aptamer 106]
A: binds

Q: Also check UGAUGACGGUAGAUUCCGGGUAGUGUGACCGCAUCU (ssRNA, 2'-F G, 2'-OMe A/C/U, 5' C6NH2, 3' idT) [Aptamer 95]
A: binds

Q: Also check UGAUGACGGUAGAUUACGGGGAGUGUGACCGCAUCU (ssRNA, 2'-F G, 2'-OMe A/C/U, 5' C6NH2, 3' idT) [Aptamer 97]
A: binds

Q: Also check UGAUGACGGUAGAUUUCGGGAAGUGUGACCGCAUCU (ssRNA, 2'-F G, 2'-OMe A/C/U, 5' C6NH2, 3' idT) [Aptamer 110]
A: binds
